These data points were gathered from paper PMC12365674.

- System: lymphocytes
- measurement.notes: Lymphocyte viability (CCK-8)
- Format: cell-based, mouse
- assay.conditions: c = 40 μM
Entries annotated with measured Cell validity (%)
API: value field is a number in %; no unit string.

// worked examples, Cell validity (%) included
{"molecule": "C[C@]1(CCO[C@H]2O[C@H](CO)[C@@H](O)[C@H](O)[C@H]2O)CC[C@H]2C(=CC[C@@H]3[C@]2(C)CCC[C@]3(C)C(=O)O)C1", "result": 100.0}
{"molecule": "C[C@]1(CCO)CC[C@H]2C(=CC[C@@H]3[C@]2(C)CCC[C@]3(C)C(=O)O)C1 [Compound 15, 16-hydroxyisopimar-7-en-19-oic acid]", "result": 80.2}
{"molecule": "C[C@]1(CCO[C@H]2O[C@H](CO)[C@@H](O)[C@H](O)[C@H]2O)CCC2=C(CC[C@H]3[C@@](C)(C(=O)O)CCC[C@]23C)C1", "result": 89.9}

INPUT: Please state recorded Cell validity (%) (tested on lymphocytes) of C[C@]1(CCO[C@H]2O[C@H](CO)[C@@H](O)[C@H](O)[C@@H]2O)CCC2=C(CC[C@H]3[C@@](C)(C(=O)O)CCC[C@]23C)C1
OUTPUT: 89.8

INPUT: Please state recorded Cell validity (%) (tested on lymphocytes) of CC12CCOC(C1)C1=C(CCC3C(C)(C(=O)O)CCCC13C)C2 (stereo not drawn)
OUTPUT: 90.7

INPUT: Please state recorded Cell validity (%) (tested on lymphocytes) of C[C@]1(CCO[C@H]2O[C@H](CO)[C@@H](O)[C@H](O)[C@@H]2O)CC[C@H]2C(=CC[C@@H]3[C@]2(C)CCC[C@]3(C)C(=O)O)C1
OUTPUT: 96.2
